Assayed System: T1, 5-Helix (HIV-1 group M subtype B, HXB2 (gp41 …, stabilised))
T1 construct: also called designed protein based on HIV-1 gp41
Test: ELISA
Test Parameters: one partner purified
Outcome Measure: F_competitive (signal with 40 nM free 5-Helix / signal without) (fraction)
Quick reminder: number only, in fraction, skip the unit.

Completed entries (count: 2):
25D8 bivalent scFv on phage (scFv, V domains shown) VH: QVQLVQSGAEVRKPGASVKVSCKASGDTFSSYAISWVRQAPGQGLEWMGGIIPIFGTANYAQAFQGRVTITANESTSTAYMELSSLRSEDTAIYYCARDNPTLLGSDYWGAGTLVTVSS VL: DIQMTQSPSTLSASIGDRVTITCRASEGISSNLAWYQQKPGKAPKLLISRAYRLASGAPSRFSGSGSGTDFTLTISSLQPDDFATYYCQQRATYPLTFGGGTKLEIK	0.2
25D9 bivalent scFv on phage (scFv, V domains shown) VH: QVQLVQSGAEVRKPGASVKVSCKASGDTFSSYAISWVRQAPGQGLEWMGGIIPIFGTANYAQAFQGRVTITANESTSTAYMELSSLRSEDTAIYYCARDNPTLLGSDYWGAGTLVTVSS VL: DIQMTQSPSTLSASIGDRVTITCRASEDILGRLAWYQQKPGKAPKLLIYRASRLASGAPSRFSGSGSGTDFTLTISSLQPDDFATYYCQQRANYPLTFGGGTKLEIK	0.2

Alright, here's another binder for you.
IN: Retrieve F_competitive (signal with 40 nM free 5-Helix / signal without) measured for 25E1 bivalent scFv on phage (scFv, V domains shown) VH: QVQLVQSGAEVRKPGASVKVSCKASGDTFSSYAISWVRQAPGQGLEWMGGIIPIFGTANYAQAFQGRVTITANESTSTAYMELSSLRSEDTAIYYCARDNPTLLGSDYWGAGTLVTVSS VL: DIQMTQSPSTLSASIGDRVTITCRASEDIGGSLAWYQQKPGKAPKLLISHAYSLASGAPSRFSGSGSGTDFTLTISSLQPDDFATYYCQQHATYPHTFGGGTKLEIK and print it.
OUT: 0.1
